test system: SK-OV-3 ovarian; assay: NCI-60 one-dose screen, 48 h (100 = growth as untreated, 0 = no growth, -100 = all killed); settings: 10 µM
This is part of a sample that, as a whole, favours compounds with a hit. Of some 83,000 tested, about 20% had one in any assay.
readoutKind: growth (%)
Respond numerically; units are % and should not be typed.

Answered examples (3):
compound	assayTarget	readoutKind	unitString	quantitativeResult
COC1=CC(=O)OC(c2ccc(OC)cc2)C1 (stereo not given)	SK-OV-3 ovarian	growth	%	117
CCCCC(CC)CN=C(N)NC(N)=NCCCCCCN=C(N)NC(N)=NCC(CC)CCCC (stereo not given)	SK-OV-3 ovarian	growth	%	-38
Brc1ccc2c(c1)-c1ccccc1C1=NCCN12	SK-OV-3 ovarian	growth	%	-3.44

INPUT: Please tell me: growth of `CN1CCN(c2cc3c(cc2F)c(=O)c(C(=O)O)cn3-c2ccc(F)cc2)CC1` , system SK-OV-3 ovarian?
OUTPUT: 109

---

growth listing for selected molecules.
Test system: SK-MEL-5 melanoma
Experiment: NCI-60 one-dose screen, 48 h (100 = growth as untreated, 0 = no growth, -100 = all killed)
Conditions: 10 µM
Procedure: Growth inhibition of the SK-MEL-5 human tumor cell line is measured as a screen for anti-cancer activity. Cells are grown in 96 well plates and exposed to the test compound for 48 hours. Compounds are tested at a single concentration, which is 10^-5 M for most compounds. The reported endpoint is percent growth (GI% or GIPRCNT), where numbers from 0 - 100% represent growth inhibition, and numbers from -100% - 0 represent cell death. For example, a value of 40 represents 60% growth inhibition. […]
About 83,000 compounds went through this panel and 20% of them were active in at least one assay; those are over-represented in the sample as a whole. Activity calls are given as the source filed them. The calls were made as follows: active = growth percent below 10; inactive = the rest.

Consider the worked cases shown below.
smilesNotation	growth
O=C1c2c(c3c4ccccc4n(CCCCCCN4CCOCC4)c3c3[nH]c4ccccc4c23)C(=O)N1O	23.4% (inactive)
CS(=O)(=O)c1nccc(-c2c(-c3cccc(OCCN4CCOCC4)c3)nc3sccn23)n1	84.5% (inactive)
CC(=O)Nc1ccc(CC[C@H]2CCC/C=C/[C@@H]3C[C@H](O)C[C@H]3[C@H](O)/C=C/C(=O)O2)cc1	-88.6% (active)
COc1cc(-c2nn(-c3cccc(NC(=O)CCN4CCN(Cc5ccccc5)CC4)c3)cc2-c2ccncc2)ccc1Cl	-95.3% (active)

Turning to the following molecule.
INPUT: growth lookup needed for `CCOC(=O)c1cc(C(=O)c2ccc(OC)c(OC)c2)n2c1ccc1ccc3cccnc3c12` , thanks.
OUTPUT: 17.4% (inactive)

---

system: UACC-62 melanoma; experiment: NCI-60 one-dose screen, 48 h (100 = growth as untreated, 0 = no growth, -100 = all killed); details: 10 µM
This is part of a sample that, as a whole, favours compounds with a hit. Of some 83,000 tested, about 20% had one in any assay.
The following compounds are shown together with reported growth values.
Respond with the bare value in %.

Worked set:
smilesNotation	unitString	growth
O=C1CCn2c1c(O)c1ccccc1c2=O	%	113
C/C(=N\O)c1ccc(NC(=O)CSc2nnc(-c3ccccc3)n2-c2ccccc2)cc1	%	81.9
NS(=O)(=O)Oc1ccc2c(ccn2C(=O)C23CC4CC(CC(C4)C2)C3)c1	%	98.8
CCOC(=O)c1sc2ncnc(Nc3ccc4c(cnn4C(=O)Nc4ccc(C)c(Cl)c4)c3)c2c1C	%	99.6
COc1ccc(C(=O)c2cc3c(OC)c(OC)c(OC)cc3[nH]2)cc1	%	36.7

Now, please, on to the next compound.
INPUT: For the compound `O=C(Nc1cccc2c1CCCC2)c1cc2ccccc2cc1O` , what growth is on record?
OUTPUT: 23

---

system: HOP-92 NSCLC; assay: NCI-60 one-dose screen, 48 h (100 = growth as untreated, 0 = no growth, -100 = all killed); conditions: 10 µM
Compounds without any hit were thinned out: in the full panel of roughly 83,000, 20% have a hit.
readoutKind: growth (%)
# unit: % | format: bare number

molecule	quantitativeResult
CN(C)c1ccc(/C=N/NC(=O)c2ccccc2Nc2cccc(C(F)(F)F)c2)cc1	73
Cc1ccc(NCCNCC(C)(C)O)c2c(=O)c3ccc(Cl)cc3sc12	21
CC(=O)N[C@H](C(=O)N[C@@H](CCCNC(=N)N)C(=O)N[C@@H](CCCCN)C(=O)N[C@@H](CCCNC(=N)N)C(=O)NC(C(=O)N[C@@H](CC(C)C)C(=O)N[C@@H](CCCNC(=N)N)C(=O)N[C@@]1(C)CCC/C=C\CCC[C@@](C)(C(=O)N[C@@H](CCCNC(=N)N)C(=O)N[C@@H](CCC(=O)O)C(=O)N[C@@H](CC(C)C)C(=O)N[C@H](C(=O)N[C@@H](CCC(=O)O)C(N)=O)C(C)C)NC(=O)[C@H](CCC(N)=O)NC(=O)[C@H](CC(C)C)NC(=O)[C@H](CC(C)C)NC1=O)[C@@H](C)O)C(C)C (some centres undefined)	-76
Cc1ccc(C2=NN(c3ccc(S(C)(=O)=O)cc3)C(=O)CC2)cc1	60.9
O=C1C=C(Nc2cccc(Br)c2)c2ccccc2C1=O	39.1
CCCc1nc(C(C)(C)O)c(C(=O)O)n1Cc1ccc(-c2ccccc2-c2nn[nH]n2)cc1	91.7
Cc1ccc(/C=C2/C(=O)N(C)c3ccc(S(=O)(=O)Nc4ccc(C(C)(C)C)cc4)cc32)s1	79.2
COc1ccc(-c2nn(-c3cccc(Cl)c3)cc2/C=C2\NC(=S)N(c3ccc(Cl)cc3)C2=O)cc1	29.3

Attention now shifts to the item below.
INPUT: # input molecule: C/C(=C/CCC(C)[C@@H]1CC[C@]2(C)C3=C(CC[C@@]12C)[C@@]1(C)CCC(=O)C(C)(C)[C@@H]1CC3)C(=O)O (some centres undefined) ; wanted: its growth
OUTPUT: -93.3

---

Quick list: growth per entry.
test system: IGROV1 ovarian; test: NCI-60 one-dose screen, 48 h (100 = growth as untreated, 0 = no growth, -100 = all killed); conditions: 10 µM
About 83,000 compounds went through this panel and 20% of them were active in at least one assay; those are over-represented in the sample as a whole.
Value expressed in %; do not type the unit.

INPUT: Requested read-out: growth. Entry: `CC(C)N(CCOc1ccc(-c2nc3sccn3c2-c2ccnc(S(C)(=O)=O)n2)cc1)C(C)C`
OUTPUT: 96.2

INPUT: Another compound to check: COc1cc2ncnc(NC3CCC(O)CC3)c2cc1OC (configuration not stated)
OUTPUT: 97.1

INPUT: // query: `COc1cc(C(=O)/C=C/c2c[nH]c3ccccc23)cc(OC)c1OC`
OUTPUT: 27.7

INPUT: Try this compound too: `O=S(=O)(NCCCNc1nccc(-c2cn(-c3ccccc3)nc2-c2ccc(Cl)c(O)c2)n1)c1ccccc1`
OUTPUT: 73.5

INPUT: Next: O=C(Nc1cc(Cl)cc2c1-c1ccc(Cl)cc1C2O)C(Cl)Cl (configuration not stated)
OUTPUT: 73.2

INPUT: Lookup `CS(=O)(=O)c1nccc(-c2c(-c3ccc(OCCc4ccccc4)cc3)nc3sccn23)n1`
OUTPUT: 110

INPUT: Next up: `CC(=O)N[C@H](C(=O)N[C@@H](CCCNC(=N)N)C(=O)N[C@@H](CCCCN)C(=O)N[C@@H](CCCNC(=N)N)C(=O)N[C@]1(C)CCC/C=C\CCC[C@@](C)(C(=O)N[C@@H](CC(C)C)C(=O)N[C@@H](CC(C)C)C(=O)N[C@@H](CCC(N)=O)C(=O)N[C@@H](CCC(=O)O)C(=O)N[C@@H](CCCNC(=N)N)C(=O)N[C@@H](CCC(=O)O)C(=O)N[C@@H](CC(C)C)C(=O)N[C@H](C(=O)N[C@@H](CCC(=O)O)C(N)=O)C(C)C)NC(=O)[C@H](CCCNC(=N)N)NC(=O)[C@H](CC(C)C)NC1=O)C(C)C`
OUTPUT: 110

INPUT: Same for `Nc1cc(-c2ccncc2)c[nH]c1=O`
OUTPUT: 108

---

test system: OVCAR-4 ovarian; assay: NCI-60 one-dose screen, 48 h; settings: 10 µM
About 83,000 compounds went through this panel and 20% of them were active in at least one assay; those are over-represented in the sample as a whole. The source made the active and inactive calls. Rule for the calls: active = growth percent below 10; inactive = the rest.
Pick one: yes (1) = active, no (0) = inactive

Record excerpt, results attached:
compound	qualitativeLabel
O=C(CN1CCN(C(=O)c2ccccc2)CC1)Nc1ccccc1SCc1ccccc1	no (0)
O=C1/C=C/[C@@H](O)[C@@H]2C[C@@H](O)C[C@H]2/C=C/CCC[C@H](C(F)(F)F)O1	no (0)
COc1ccc(Cl)cc1Nc1nc(C(F)(F)F)ccc1C(=O)N/N=C/c1ccc(Cl)cc1	no (0)
CC1OC2CC(=O)OC2C2=C1C(=O)c1c(O)c3c(c(O)c1C2=O)C1CC(O)C3(O)C(C)O1 (centres undefined)	yes (1)
O=C(c1ccccc1)N(C(=O)c1ccccc1)N1CCCC1	no (0)

INPUT: Call for entry CC1=CC2C(C(O)CC3(C)C2CC(C)C32OCOC23COCO3)C2(C)C/C(=C/O)C(=O)C=C12 (centres undefined) :
OUTPUT: no (0)

INPUT: // same read-out, input: `CCOC(=O)c1cc(C(=O)c2ccc(Cl)cc2)n2ccc(-c3cc[n+](CC(=O)c4ccc(OC)cc4)cc3)cc12`
OUTPUT: no (0)

INPUT: Next: `O=[N+]([O-])c1cccc(/C=N/NC(=S)NC23CC4CC(CC(C4)C2)C3)c1`
OUTPUT: no (0)

INPUT: Now this one: `CCCCc1oc2ccccc2c1C(=O)c1cc(I)c(OCCN(CC)CC)c(I)c1`
OUTPUT: no (0)

Reference source: PubChem BioAssay (NCI)
